# system-under-test: cloned human MC4R (Homo sapiens, UniProt P32245)
# Construct: made in house; host or cells: Hi5 insect cells (baculovirus infection); membrane preparation
# Sequence (P32245 whole entry): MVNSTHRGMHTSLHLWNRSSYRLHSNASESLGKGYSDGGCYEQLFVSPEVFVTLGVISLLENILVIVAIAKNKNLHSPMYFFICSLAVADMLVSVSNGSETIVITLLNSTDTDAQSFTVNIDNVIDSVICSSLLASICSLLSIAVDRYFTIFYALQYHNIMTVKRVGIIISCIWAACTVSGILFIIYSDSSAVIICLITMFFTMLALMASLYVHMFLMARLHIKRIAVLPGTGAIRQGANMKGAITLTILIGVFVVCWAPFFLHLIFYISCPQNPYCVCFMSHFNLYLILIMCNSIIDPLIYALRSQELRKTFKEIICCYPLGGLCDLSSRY
# experiment-description: Membrane binding assay: competitive inhibition of [125I]NDP-α-MSH binding
# condition-summary: at 10 μM; [125I]NDP-α-MSH displacement
measured-quantity: Displacement Rate (%) (at 10 μM)

Please review the entries below; each comes with its answer.
{"compound-structure": "N[C@@H](Cc1ccc(OCc2ccc(Cl)cc2)cc1)C(=O)N1CCN(Cc2cccc(Cl)c2Cl)CC1", "Displacement Rate (%) (at 10 μM)": "+++ (+++ = 91-100)"}
{"compound-structure": "N[C@@H](Cc1ccc(OCCc2ccccc2-c2ccccc2)cc1)C(=O)N1CCN(Cc2cccc(Cl)c2Cl)CC1", "Displacement Rate (%) (at 10 μM)": "+++ (+++ = 91-100)"}
{"compound-structure": "N[C@@H](Cc1ccc(OCc2ccccc2)cc1)C(=O)N1CCN(Cc2cccc(Cl)c2Cl)CC1", "Displacement Rate (%) (at 10 μM)": "+++ (+++ = 91-100)"}
{"compound-structure": "COc1ccc(-c2ccc(C[C@H](N)C(=O)N3CCN(Cc4cccc(Cl)c4Cl)CC3)cc2)c(OC)c1", "Displacement Rate (%) (at 10 μM)": "++ (++ = 71-90)"}
{"compound-structure": "N[C@@H](Cc1ccc(OCCCc2ccc(OCc3ccccc3)cc2)cc1)C(=O)N1CCN(Cc2cccc(Cl)c2Cl)CC1", "Displacement Rate (%) (at 10 μM)": "+++ (+++ = 91-100)"}

List reported Displacement Rate (%) (at 10 μM) for each of these compounds:
1. Cc1cccc(COc2ccc(C[C@H](N)C(=O)N3CCN(Cc4cccc(Cl)c4Cl)CC3)cc2)c1
2. N[C@@H](Cc1ccc(OCCCc2ccccc2)cc1)C(=O)N1CCN(Cc2cccc(Cl)c2Cl)CC1
3. COc1ccc(CCCOc2ccc(C[C@H](N)C(=O)N3CCN(Cc4cccc(Cl)c4Cl)CC3)cc2)cc1

Result ::
["+++ (+++ = 91-100)", "+++ (+++ = 91-100)", "++ (++ = 71-90)"]

###

Field: IC50. Provide a value for each of the compounds that follow.
# system-under-test: cloned human MC4R (Homo sapiens, UniProt P32245)
# Construct: made in house; host or cells: Hi5 insect cells (baculovirus infection); membrane preparation
# experiment-description: Membrane binding assay: competitive inhibition of [125I]NDP-α-MSH binding
# condition-summary: read-out: MC4R IC50

{"compound": "N[C@@H](Cc1ccc(OCc2ccccc2)cc1)C(=O)N1CCCN(C2CCc3ccccc3C2)CC1 (stereo partly shown)", "IC50": "> 3 µM"}

Dear colleague, could you please provide IC50 for the compounds listed below?
1. CC(C)(C)c1ccc(Oc2cccc(CN3CCN(C(=O)[C@@H](N)Cc4ccc(OCc5ccccc5)cc4)CC3)c2)cc1
2. N[C@@H](Cc1ccc(OCc2ccccc2)cc1)C(=O)N1CCCN(Cc2ccc(C(F)(F)F)cc2)CC1
3. COc1ccc(OC)c(-c2ccc(C[C@H](N)C(=O)N3CCN(Cc4cccc(Cl)c4Cl)CC3)cc2)c1
4. N[C@@H](Cc1ccc(OCCc2cccc([N+](=O)[O-])c2)cc1)C(=O)N1CCN(Cc2cccc(Cl)c2Cl)CC1
5. N[C@@H](Cc1ccc(OCc2ccccc2)cc1)C(=O)N1CCN(Cc2ccc(Br)cc2)CC1
6. CN(C)c1ccc(CN2CCN(C(=O)[C@@H](N)Cc3ccc(OCc4ccccc4)cc3)CC2)c2ccccc12

Result ::
["< 1.5 µM", "< 1.5 µM", "1.5 to 3 µM", "1.5 to 3 µM", "> 3 µM", "> 3 µM"]

###

# system-under-test: cloned human MC4R (Homo sapiens)
# Construct: made in house; host or cells: Hi5 insect cells (baculovirus infection); membrane preparation
# experiment-description: Membrane binding assay: competitive inhibition of [125I]NDP-α-MSH binding
# condition-summary: read-out: MC4R IC50
pIC50: −log10 of the molar value.
measured-quantity: pIC50

Look over these answered cases.
{"compound-structure": "CN(CCOc1ccc(C[C@H](N)C(=O)N2CCN(Cc3cccc(Cl)c3Cl)CC2)cc1)Cc1ccccc1", "endpoint-value": "5.52 to 5.82"}
{"compound-structure": "N[C@@H](Cc1ccc(-c2ccc3c(c2)OCO3)cc1)C(=O)N1CCN(Cc2cccc(Cl)c2Cl)CC1", "endpoint-value": "5.52 to 5.82"}
{"compound-structure": "Cc1ccc(C)c(CN2CCCN(C(=O)[C@@H](N)Cc3ccc(OCc4ccccc4)cc3)CC2)c1", "endpoint-value": "< 5.52"}
{"compound-structure": "COc1cc(CN2CCCN(C(=O)[C@@H](N)Cc3ccc(OCc4ccccc4)cc3)CC2)cc(Br)c1OC", "endpoint-value": "< 5.52"}

Could you tell me pIC50 for each of these molecules? They are listed below.
1. N[C@@H](Cc1ccc(OCc2ccccc2)cc1)C(=O)N1CCCN(Cc2cccc(Oc3ccc(Cl)c(Cl)c3)c2)CC1
2. N[C@@H](Cc1ccc(OCc2ccccc2)cc1)C(=O)N1CCN(Cc2cc3c(cc2Cl)OCO3)CC1
3. N[C@@H](Cc1ccc(OCc2ccccc2)cc1)C(=O)N1CCCN(Cc2ccc(Oc3ccccc3)cc2)CC1

Result ::
1: > 5.82; 2: < 5.52; 3: 5.52 to 5.82

###

# system-under-test: cloned human MC4R (Homo sapiens, UniProt P32245)
# Construct: made in house; host or cells: Hi5 insect cells (baculovirus infection); membrane preparation
# experiment-description: Membrane binding assay: competitive inhibition of [125I]NDP-α-MSH binding
# condition-summary: at 10 μM; [125I]NDP-α-MSH displacement
measured-quantity: Displacement Rate (%) (at 10 μM)

{"compound-structure": "N[C@@H](Cc1ccc(OCCc2cccc(Br)c2)cc1)C(=O)N1CCN(Cc2cccc(Cl)c2Cl)CC1", "Displacement Rate (%) (at 10 μM)": "+++ (+++ = 91-100)"}
{"compound-structure": "N[C@@H](Cc1ccc(OCc2cc3c(cc2[N+](=O)[O-])OCO3)cc1)C(=O)N1CCN(Cc2cccc(Cl)c2Cl)CC1", "Displacement Rate (%) (at 10 μM)": "++ (++ = 71-90)"}
{"compound-structure": "COc1ccc(COc2ccc(C[C@H](N)C(=O)N3CCN(Cc4cccc(Cl)c4Cl)CC3)cc2)cc1", "Displacement Rate (%) (at 10 μM)": "++ (++ = 71-90)"}
{"compound-structure": "N[C@@H](Cc1ccc(-c2ccc3c(c2)OCO3)cc1)C(=O)N1CCN(Cc2cccc(Cl)c2Cl)CC1", "Displacement Rate (%) (at 10 μM)": "++ (++ = 71-90)"}
{"compound-structure": "N[C@@H](Cc1ccc(OCc2ccc(F)cc2)cc1)C(=O)N1CCN(Cc2cccc(Cl)c2Cl)CC1", "Displacement Rate (%) (at 10 μM)": "+++ (+++ = 91-100)"}
{"compound-structure": "N[C@@H](Cc1ccc(OCCc2cccc(OCc3ccccc3)c2)cc1)C(=O)N1CCN(Cc2cccc(Cl)c2Cl)CC1", "Displacement Rate (%) (at 10 μM)": "+++ (+++ = 91-100)"}

Quick request: Displacement Rate (%) (at 10 μM) for each listed item, please.
1. N[C@@H](Cc1ccc(OCCc2cccc3ccccc23)cc1)C(=O)N1CCN(Cc2cccc(Cl)c2Cl)CC1
2. CN(CCOc1ccc(C[C@H](N)C(=O)N2CCN(Cc3cccc(Cl)c3Cl)CC2)cc1)Cc1ccccc1
3. COc1ccc(Cl)cc1-c1ccc(C[C@H](N)C(=O)N2CCN(Cc3cccc(Cl)c3Cl)CC2)cc1
4. COc1ccccc1COc1ccc(C[C@H](N)C(=O)N2CCN(Cc3cccc(Cl)c3Cl)CC2)cc1
5. Cc1cc(C)cc(COc2ccc(C[C@H](N)C(=O)N3CCN(Cc4cccc(Cl)c4Cl)CC3)cc2)c1
6. CSc1ccc(COc2ccc(C[C@H](N)C(=O)N3CCN(Cc4cccc(Cl)c4Cl)CC3)cc2)cc1
7. N[C@@H](Cc1ccc(OCCc2ccc(Cl)cc2Cl)cc1)C(=O)N1CCN(Cc2cccc(Cl)c2Cl)CC1
8. N[C@@H](Cc1ccc(OCc2ccccc2Br)cc1)C(=O)N1CCN(Cc2cccc(Cl)c2Cl)CC1

Result ::
["+++ (+++ = 91-100)", "++ (++ = 71-90)", "+++ (+++ = 91-100)", "++ (++ = 71-90)", "+++ (+++ = 91-100)", "++ (++ = 71-90)", "+++ (+++ = 91-100)", "+++ (+++ = 91-100)"]

Each molecule below has a recorded value; state its Displacement Rate (%) (at 10 μM).
1. N[C@@H](Cc1ccc(OCc2ccc(C(F)(F)F)cc2)cc1)C(=O)N1CCN(Cc2cccc(Cl)c2Cl)CC1
2. N[C@@H](Cc1ccc(OCc2ccccc2C(F)(F)F)cc1)C(=O)N1CCN(Cc2cccc(Cl)c2Cl)CC1
3. N[C@@H](Cc1ccc(OCCc2cccc(C(F)(F)F)c2)cc1)C(=O)N1CCN(Cc2cccc(Cl)c2Cl)CC1
4. Cc1ccc(COc2ccc(C[C@H](N)C(=O)N3CCN(Cc4cccc(Cl)c4Cl)CC3)cc2)cc1

Result ::
+++ (+++ = 91-100)
+++ (+++ = 91-100)
+++ (+++ = 91-100)
+++ (+++ = 91-100)

Below are some molecules; for each one, tell me its Displacement Rate (%) (at 10 μM).
1. COc1ccc(COc2ccc(C[C@H](N)C(=O)N3CCN(Cc4cccc(Cl)c4Cl)CC3)cc2)c(OC)c1
2. N[C@@H](Cc1ccc(OCc2cccc(C(F)(F)F)c2)cc1)C(=O)N1CCN(Cc2cccc(Cl)c2Cl)CC1
3. N[C@@H](Cc1ccc(OCc2c3ccccc3cc3ccccc23)cc1)C(=O)N1CCN(Cc2cccc(Cl)c2Cl)CC1
4. N[C@@H](Cc1ccc(OCCCCc2ccccc2)cc1)C(=O)N1CCN(Cc2cccc(Cl)c2Cl)CC1

Result ::
++ (++ = 71-90)
+++ (+++ = 91-100)
++ (++ = 71-90)
+++ (+++ = 91-100)
